Biological target: Fes (UniProt P07332)
Sequence (P07332 whole entry, looked up): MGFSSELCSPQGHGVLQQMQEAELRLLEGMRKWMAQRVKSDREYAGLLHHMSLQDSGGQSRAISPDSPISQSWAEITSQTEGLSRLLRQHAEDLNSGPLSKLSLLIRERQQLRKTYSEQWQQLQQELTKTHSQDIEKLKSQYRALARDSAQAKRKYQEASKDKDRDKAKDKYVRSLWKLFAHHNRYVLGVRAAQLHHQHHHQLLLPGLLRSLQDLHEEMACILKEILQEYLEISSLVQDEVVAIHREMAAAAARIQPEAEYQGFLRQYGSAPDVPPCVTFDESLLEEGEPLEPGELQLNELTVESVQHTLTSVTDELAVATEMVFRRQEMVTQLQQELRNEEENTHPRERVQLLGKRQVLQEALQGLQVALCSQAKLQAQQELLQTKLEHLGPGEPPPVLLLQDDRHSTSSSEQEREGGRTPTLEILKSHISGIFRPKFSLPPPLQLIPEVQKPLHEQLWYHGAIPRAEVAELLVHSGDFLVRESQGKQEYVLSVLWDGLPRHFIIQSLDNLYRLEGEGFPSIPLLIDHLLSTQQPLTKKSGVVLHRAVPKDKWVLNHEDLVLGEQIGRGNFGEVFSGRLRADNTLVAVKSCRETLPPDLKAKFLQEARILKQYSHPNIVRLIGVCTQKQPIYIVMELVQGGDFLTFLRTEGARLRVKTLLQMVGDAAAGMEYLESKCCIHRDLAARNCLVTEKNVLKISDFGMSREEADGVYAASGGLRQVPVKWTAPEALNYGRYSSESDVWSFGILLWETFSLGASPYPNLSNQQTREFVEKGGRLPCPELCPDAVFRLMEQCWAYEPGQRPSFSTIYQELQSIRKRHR
Experiment: phosphorylation enrichment, bacterial display (enrichment ratio); higher = better substrate or ligand; peptides without Tyr show the background;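 note: 11-residue human phosphosite peptides and single-mutation variants displayed on the E. coli surface, counted by deep sequencing, each peptide's frequency after selection divided by its frequency in the unselected input library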;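 note: frequency after pTyr selection over input frequency; kinase dosed for 20-30% of maximal phosphorylation in three min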
readout_label: phosphorylation enrichment
Form: value (number only, do not type unit).

phosphorylation enrichment of EEDPEYKKKFR [FAM161A_Y278] , assay on Fes (UniProt P07332), is 0.99

phosphorylation enrichment of TDLAFYLVCKG [ASL_Y376_R379C_YF] , assay on Fes (UniProt P07332), is 1.7

phosphorylation enrichment of GSSEDYLHMVH [NIPBL_Y247] , assay on Fes (UniProt P07332), is 0.874

phosphorylation enrichment of HAVFIYDICHV [TWNK_Y508_V507I_YF] , assay on Fes (UniProt P07332), is 1.56

phosphorylation enrichment of HGDSAYHSQRH [ERBB3_Y1132_R1127H] , assay on Fes (UniProt P07332), is 1.22

phosphorylation enrichment of NKEAIYSGYIR [SMCHD1_Y283] , assay on Fes (UniProt P07332), is 0.687

phosphorylation enrichment of AKGMKYVASKK [MET_Y1194_L1195V] , assay on Fes (UniProt P07332), is 0.548

phosphorylation enrichment of TEALYYTDDPA [ADPRS_Y75_T79P] , assay on Fes (UniProt P07332), is 1.82

phosphorylation enrichment of AALVQYFMEHH [PTPN11_Y80_E76A_YF] , assay on Fes (UniProt P07332), is 1.05

phosphorylation enrichment of LKFAIYFEVRE [LAMA2_Y1258_A1261V_YF] , assay on Fes (UniProt P07332), is 1.72

phosphorylation enrichment of RGDVIYKGFED [NFU1_Y194_G189R] , assay on Fes (UniProt P07332), is 1.03

phosphorylation enrichment of FHNSEYGELSE [FLT4_Y1337_Y1333H] , assay on Fes (UniProt P07332), is 1.23

phosphorylation enrichment of KKYPDYIQIAM [SGMS2_Y59] , assay on Fes (UniProt P07332), is 0.949

phosphorylation enrichment of DFFDLYGGQKF [PTPN11_Y66_E69Q_YF] , assay on Fes (UniProt P07332), is 0.94

phosphorylation enrichment of RDSQIYAVDFE [MRPS34_Y34_L33I_YF] , assay on Fes (UniProt P07332), is 1.22

phosphorylation enrichment of IGERTYGQVYK [CDK13_Y716_G714R] , assay on Fes (UniProt P07332), is 0.555

phosphorylation enrichment of QTEGEYSSLEH [IDH3B_Y171] , assay on Fes (UniProt P07332), is 1.82

phosphorylation enrichment of FRGFSYDDIPD [TMEM230_Y112_YF] , assay on Fes (UniProt P07332), is 1.44

phosphorylation enrichment of VEDHYYEGGIG [TKT_Y564] , assay on Fes (UniProt P07332), is 1.11

phosphorylation enrichment of YASALYRQRRS [FGF11_Y162] , assay on Fes (UniProt P07332), is 0.632

phosphorylation enrichment of VLNKGYRMVVN [HINT1_Y94_G89V] , assay on Fes (UniProt P07332), is 0.539

phosphorylation enrichment of RPLVVYPWTQR [HBB_Y36_L32P] , assay on Fes (UniProt P07332), is 0.748

phosphorylation enrichment of DHAGMYGLGDR [MAPT_Y18_T17M] , assay on Fes (UniProt P07332), is 0.558

phosphorylation enrichment of VLDCHYPEDEV [C1QBP_Y188] , assay on Fes (UniProt P07332), is 1.27

phosphorylation enrichment of KILTHYKRPHT [KMT2D_Y5349] , assay on Fes (UniProt P07332), is 0.621

phosphorylation enrichment of AEEPIYIIVPA [BMXtide_2014] , assay on Fes (UniProt P07332), is 2.98

phosphorylation enrichment of HSGIFYKPESL [L2HGDH_Y103_YF] , assay on Fes (UniProt P07332), is 1.82

phosphorylation enrichment of TEAGDYKLCFD [TMED1_Y103] , assay on Fes (UniProt P07332), is 1.35

phosphorylation enrichment of DVELLYPVKEK [EPHX1_Y283] , assay on Fes (UniProt P07332), is 1.05
